# assay protocol: Concentration of (S)-methoprene on dog hair following oral administration (HPLC)
# Format: in vivo, dogs
# experimental conditions: random-bred, dog, hair, po, 50 mg/kg, Dog #532; oral 50 mg/kg one time on Day 0; day 5
assay metric: concentration at 5 day (ng/g)
Report as a plain number; the unit ng/g is understood.

concentration at 5 day for COC(C)(C)CCC[C@H](C)C/C=C/C(C)=C/C(=O)OC(C)C [(S)-Methoprene] ?
98.6

---

# assay protocol: Concentration of (S)-methoprene on dog hair following oral administration (HPLC)
# Assay type: in vivo, dogs
# experimental conditions: random-bred, dog, hair, po, 50 mg/kg, Dog #529; oral 50 mg/kg one time on Day 0; day 5
assay metric: concentration at 5 day (ng/g)
Number only, in ng/g; omit the unit.

Could you tell me which concentration at 5 day is on file for COC(C)(C)CCC[C@H](C)C/C=C/C(C)=C/C(=O)OC(C)C [(S)-Methoprene] ?
58.3

---

# assay protocol: Concentration of (S)-methoprene on dog hair following oral administration (HPLC)
# Type: in vivo, dogs
# experimental conditions: random-bred, dog, hair, po, 50 mg/kg, Dog #535; oral 50 mg/kg one time on Day 0; day 5
# Text: Twelve random-bred adult dogs of various sex and medium hair coat were selected based on hair coat, health, and individual habits. The twelve dogs were grouped into two groups of six dogs each. Dog weights ranged from 22.5 kg to 35.0 kg, and the various weights and each sex were represented in each group. The dogs received a measured amount of Science Diet maintenance dog food daily and water was available. The two groups of dogs were housed separately. […]
assay metric: concentration at 5 day (ng/g)
Entry rule: numbers only, all in ng/g.

// returns reported concentration at 5 day for input COC(C)(C)CCC[C@H](C)C/C=C/C(C)=C/C(=O)OC(C)C [(S)-Methoprene]
276

---

# assay protocol: Concentration of (S)-methoprene on dog hair following oral administration (HPLC)
# Assay type: in vivo, dogs
# experimental conditions: dog, hair, po, 50 mg/kg, Dog #529; oral 50 mg/kg one time on Day 0; day 21
# From the text: Twelve random-bred adult dogs of various sex and medium hair coat were selected based on hair coat, health, and individual habits. The twelve dogs were grouped into two groups of six dogs each. Dog weights ranged from 22.5 kg to 35.0 kg, and the various weights and each sex were represented in each group. The dogs received a measured amount of Science Diet maintenance dog food daily and water was available. The two groups of dogs were housed separately. […]
assay metric: concentration at 21 day (ng/g)
Give the quantity in ng/g, number only.

Name the reported concentration at 21 day value associated with the molecule COC(C)(C)CCC[C@H](C)C/C=C/C(C)=C/C(=O)OC(C)C [(S)-Methoprene]
93.5

---

# assay protocol: Concentration of (S)-methoprene on dog hair following oral administration (HPLC)
# Format: in vivo, dogs
# experimental conditions: random-bred, dog, hair, po, 50 mg/kg, Dog #532; oral 50 mg/kg one time on Day 0; day 10
assay metric: concentration at 10 day (ng/g)
Give your result in ng/g as a bare value.

Endpoint output: concentration at 10 day of COC(C)(C)CCC[C@H](C)C/C=C/C(C)=C/C(=O)OC(C)C [(S)-Methoprene] . Value?
255

---

# assay protocol: Concentration of (S)-methoprene on dog hair following oral administration (HPLC)
# Type: in vivo, dogs
# experimental conditions: dog, hair, po, 50 mg/kg, Dog #528; oral 50 mg/kg one time on Day 0; day 17
# Text: Twelve random-bred adult dogs of various sex and medium hair coat were selected based on hair coat, health, and individual habits. The twelve dogs were grouped into two groups of six dogs each. Dog weights ranged from 22.5 kg to 35.0 kg, and the various weights and each sex were represented in each group. The dogs received a measured amount of Science Diet maintenance dog food daily and water was available. The two groups of dogs were housed separately. […]
assay metric: concentration at 17 day (ng/g)
Express it in ng/g; write the number only.

Any idea what its concentration at 17 day is? The compound is COC(C)(C)CCC[C@H](C)C/C=C/C(C)=C/C(=O)OC(C)C [(S)-Methoprene]
137

---

# assay protocol: Concentration of (S)-methoprene on dog hair following oral administration (HPLC)
# Assay type: in vivo, dogs
# experimental conditions: random-bred, dog, hair, po, 50 mg/kg, Dog #535; oral 50 mg/kg one time on Day 0; day 28
assay metric: concentration at 28 day (ng/g)
Value expressed in ng/g; do not type the unit.

Please report the recorded concentration at 28 day for COC(C)(C)CCC[C@H](C)C/C=C/C(C)=C/C(=O)OC(C)C [(S)-Methoprene] .
461

---

# assay protocol: Concentration of (S)-methoprene in dog blood following oral administration (HPLC)
# Format: in vivo, dogs
# experimental conditions: random-bred, whole blood, 50 mg/kg, Dog #534, oral 50 mg/kg one time on Day 0, day 3
assay metric: concentration at 3 day (ng/g)
Answer in ng/g, number only, no unit symbol.

Entry COC(C)(C)CCC[C@H](C)C/C=C/C(C)=C/C(=O)OC(C)C [(S)-Methoprene] has what concentration at 3 day?
94.2

---

# assay protocol: Concentration of (S)-methoprene in dog blood following oral administration (HPLC)
# Type: in vivo, dogs
# experimental conditions: random-bred, whole blood, 50 mg/kg, Dog #535, oral 50 mg/kg one time on Day 0, day 3
assay metric: concentration at 3 day
Enter the number, and then the unit.

Any idea what its concentration at 3 day is? The compound is COC(C)(C)CCC[C@H](C)C/C=C/C(C)=C/C(=O)OC(C)C [(S)-Methoprene]
93.3 ng/g

---

# assay protocol: Concentration of (S)-methoprene in dog blood following oral administration (HPLC)
# Format: in vivo, dogs
# experimental conditions: random-bred, whole blood, 50 mg/kg, Dog #535, oral 50 mg/kg one time on Day 0, day 1
assay metric: concentration at 1 day (ng/g)
// units = ng/g; emit number, no label

Requested read-out: concentration at 1 day. Entry: COC(C)(C)CCC[C@H](C)C/C=C/C(C)=C/C(=O)OC(C)C [(S)-Methoprene]
239

---

# assay protocol: Concentration of (S)-methoprene on dog hair following oral administration (HPLC)
# Format: in vivo, dogs
# experimental conditions: random-bred, dog, hair, po, 50 mg/kg, Dog #528; oral 50 mg/kg one time on Day 0; day 28
assay metric: concentration at 28 day (ng/g)
Reply with just the number (in ng/g).

Fill in: concentration at 28 day of COC(C)(C)CCC[C@H](C)C/C=C/C(C)=C/C(=O)OC(C)C [(S)-Methoprene] is ___
47.2

---

# assay protocol: Concentration of (S)-methoprene on dog hair following oral administration (HPLC)
# Assay type: in vivo, dogs
# experimental conditions: random-bred, dog, hair, po, 50 mg/kg, Dog #528; oral 50 mg/kg one time on Day 0; day 7
assay metric: concentration at 7 day
Record the result as a number with its unit.

Recorded concentration at 7 day of COC(C)(C)CCC[C@H](C)C/C=C/C(C)=C/C(=O)OC(C)C [(S)-Methoprene] , please.
150 ng/g

---

# assay protocol: Concentration of (S)-methoprene on dog hair following oral administration (HPLC)
# Format: in vivo, dogs
# experimental conditions: random-bred, dog, hair, po, 50 mg/kg, Dog #528; oral 50 mg/kg one time on Day 0; day 5
assay metric: concentration at 5 day (ng/g)
Quick note: give the figure in ng/g, leave out the unit.

# get_value(readout='concentration at 5 day', item= COC(C)(C)CCC[C@H](C)C/C=C/C(C)=C/C(=O)OC(C)C [(S)-Methoprene] )
114

---

# assay protocol: Concentration of (S)-methoprene on dog hair following oral administration (HPLC)
# Assay type: in vivo, dogs
# experimental conditions: random-bred, dog, hair, po, 50 mg/kg, Dog #98; oral 50 mg/kg one time on Day 0; day 28
assay metric: concentration at 28 day (ng/g)
State the answer as a number, implicitly in ng/g.

# lookup: concentration at 28 day of COC(C)(C)CCC[C@H](C)C/C=C/C(C)=C/C(=O)OC(C)C [(S)-Methoprene]
287

---

# assay protocol: Concentration of (S)-methoprene on dog hair following oral administration (HPLC)
# Assay type: in vivo, dogs
# experimental conditions: dog, hair, po, 50 mg/kg, Dog #98; oral 50 mg/kg one time on Day 0; day 17
# Source text: Twelve random-bred adult dogs of various sex and medium hair coat were selected based on hair coat, health, and individual habits. The twelve dogs were grouped into two groups of six dogs each. Dog weights ranged from 22.5 kg to 35.0 kg, and the various weights and each sex were represented in each group. The dogs received a measured amount of Science Diet maintenance dog food daily and water was available. The two groups of dogs were housed separately. […]
assay metric: concentration at 17 day (ng/g)
Hi! Could you send only the number? It should be in ng/g, unit omitted.

Need concentration at 17 day, item COC(C)(C)CCC[C@H](C)C/C=C/C(C)=C/C(=O)OC(C)C [(S)-Methoprene]
345
